# measurementTarget: human TLR8 (Homo sapiens)
# testProtocol: TLR8 inhibition reporter assay (HEK-Blue SEAP)
# conditionSet: HEK-Blue cells overexpressing human TLR8, R848 15.9 μM, 22 hour incubation
measuredParameter: IC50 (nM)

{"compound": "COc1cc(-c2cc3[nH]c(=O)n(C4CCC(N5C[C@@H](F)[C@@H](F)C5)CC4)c3cc2C(C)C)cn2ncnc12 (single isomer, unassigned) [Example 292]", "measurementTarget": "human TLR8 (Homo sapiens)", "unitSymbol": "nM", "IC50": 0.13}
{"compound": "COc1cc(-c2cc3[nH]c(=O)n([C@@H]4CCCN(C5COC5)C4)c3cc2C)cn2ncnc12 [Example 72]", "measurementTarget": "human TLR8 (Homo sapiens)", "unitSymbol": "nM", "IC50": 249}
{"compound": "COc1cc(-c2cc3[nH]c(=O)n(C4CCC(N5CC6(C5)CS(=O)(=O)C6)CC4)c3cc2C(C)C)cn2ncnc12 (single isomer, unassigned) [Example 245]", "measurementTarget": "human TLR8 (Homo sapiens)", "unitSymbol": "nM", "IC50": 11.7}
{"compound": "COc1cc(-c2cc3[nH]c(=O)n(C4CCC(N5CC(F)(F)C5)CC4)c3cc2C(C)C)cn2ncnc12 (single isomer, unassigned) [Example 297]", "measurementTarget": "human TLR8 (Homo sapiens)", "unitSymbol": "nM", "IC50": 8.4}
{"compound": "CCc1cc2c(cc1-c1cc(OC)c3ncnn3c1)[nH]c(=O)n2[C@@H]1CCCN(C(C)CC)C1 (some centres unmarked) [Example 176]", "measurementTarget": "human TLR8 (Homo sapiens)", "unitSymbol": "nM", "IC50": 8}

I: CCN1CCC(n2c(=O)[nH]c3cc(-c4cc(C)c5ncnn5c4)cc(C)c32)CC1 [Example 108]
II: Cc1cc(-c2cc(C)c3ncnn3c2)cc2[nH]c(=O)n(C3CCNCC3)c12 [106 F]
III: CCN1CCC[C@@H](n2c(=O)[nH]c3cc(-c4cc(OC)c5ncnn5c4)c(C(C)C)cc32)C1 [Example 138]
Query block: Hey, quick one: sort these by IC50, low to high? Field: ranking. Enter the labels in the order requested.
Result block: III, I, II
(III: 2.64 nM, I: 83.1 nM, II: 433 nM)

I: COc1cc(-c2cc3[nH]c(=O)n([C@@H]4CCCN(CC5CC5)C4)c3cc2C(C)C)cn2ncnc12 [Example 142]
II: COCCN1CCC[C@@H](n2c(=O)[nH]c3cc(-c4cc(C)c5ncnn5c4)c(C)cc32)C1 [Example 97]
Query block: Could you check which of I and II has a smaller value for IC50? Indicate your choice by writing its label.
Result block: I

A: COC1CN(C2CCC(n3c(=O)[nH]c4cc(-c5cn6ncnc6c(C)c5C)c(C(C)C)cc43)CC2)C1 (single isomer, unassigned) [Example 277]
B: CCN1CCC[C@@H](n2c(=O)[nH]c3cc(-c4cc(OC)c5ncnn5c4)c(C(F)(F)F)cc32)C1 [Example 110]
Query block: # argmax over IC50 for candidates A and B Pick one and reply with its label.
Result block: B
(B: 4.06 nM, A: 0.74 nM)

###

# measurementTarget: human TLR8 (Homo sapiens, UniProt Q9NR97)
# Sequence (Q9NR97 27-1041): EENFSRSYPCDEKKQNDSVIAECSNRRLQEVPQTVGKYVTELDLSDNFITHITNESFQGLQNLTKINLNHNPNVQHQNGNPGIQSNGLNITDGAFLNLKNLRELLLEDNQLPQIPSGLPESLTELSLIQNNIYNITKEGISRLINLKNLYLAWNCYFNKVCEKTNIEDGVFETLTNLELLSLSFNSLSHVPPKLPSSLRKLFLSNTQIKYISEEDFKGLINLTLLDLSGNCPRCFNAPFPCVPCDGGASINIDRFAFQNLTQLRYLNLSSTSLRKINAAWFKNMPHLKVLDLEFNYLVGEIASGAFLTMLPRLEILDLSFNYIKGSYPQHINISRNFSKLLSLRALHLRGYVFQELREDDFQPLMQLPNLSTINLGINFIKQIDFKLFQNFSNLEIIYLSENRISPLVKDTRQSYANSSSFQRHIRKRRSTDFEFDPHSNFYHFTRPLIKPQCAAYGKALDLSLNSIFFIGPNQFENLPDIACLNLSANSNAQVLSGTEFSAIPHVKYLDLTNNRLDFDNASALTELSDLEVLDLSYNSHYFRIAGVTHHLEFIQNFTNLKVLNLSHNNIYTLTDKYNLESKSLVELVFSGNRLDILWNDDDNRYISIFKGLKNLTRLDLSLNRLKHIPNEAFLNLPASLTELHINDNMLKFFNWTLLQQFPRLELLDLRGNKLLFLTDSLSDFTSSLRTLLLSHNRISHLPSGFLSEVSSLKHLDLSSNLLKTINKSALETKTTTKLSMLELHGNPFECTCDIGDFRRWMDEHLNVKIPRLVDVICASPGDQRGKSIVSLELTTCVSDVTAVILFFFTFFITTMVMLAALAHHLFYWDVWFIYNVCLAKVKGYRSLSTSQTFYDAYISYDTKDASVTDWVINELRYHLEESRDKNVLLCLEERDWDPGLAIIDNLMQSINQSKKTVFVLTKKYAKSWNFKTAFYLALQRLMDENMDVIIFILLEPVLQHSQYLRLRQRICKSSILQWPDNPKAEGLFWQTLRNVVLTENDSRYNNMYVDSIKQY
# testProtocol: TLR8 inhibition reporter assay (HEK-Blue SEAP)
# conditionSet: HEK-Blue cells overexpressing human TLR8, R848 15.9 μM, 22 hour incubation
pIC50: −log10 of the molar value.
measuredParameter: pIC50

{"molecule": "Cc1cc2c(cc1-c1cc(C)c3ncnn3c1)[nH]c(=O)n2[C@@H]1CCCN(CC2CCOC2)C1 (some centres unmarked)", "measurementTarget": "human TLR8 (Homo sapiens, UniProt Q9NR97)", "assayValue": 7.24}
{"molecule": "COc1cc(-c2cc3[nH]c(=O)n(C4CCC(N5CC(O)(C(F)(F)F)C5)CC4)c3cc2C(C)C)cn2ncnc12 (single isomer, unassigned) [Example 241]", "measurementTarget": "human TLR8 (Homo sapiens, UniProt Q9NR97)", "assayValue": 9.31}
{"molecule": "CCc1cc2c(cc1-c1cc(OC)c3ncnn3c1)[nH]c(=O)n2[C@H]1CC[C@@H](N(CC)CC)CC1", "measurementTarget": "human TLR8 (Homo sapiens, UniProt Q9NR97)", "assayValue": 9.13}
{"molecule": "Cc1cc2c(cc1-c1cc(C)c3ncnn3c1)[nH]c(=O)n2C1CCN(CC(=O)N(C)C)CC1 [Example 89]", "measurementTarget": "human TLR8 (Homo sapiens, UniProt Q9NR97)", "assayValue": 6.98}
{"molecule": "COc1cc(-c2cc3[nH]c(=O)n([C@H]4CC[C@@H](NCC(C)(C)C)CC4)c3cc2C(C)C)cn2ncnc12", "measurementTarget": "human TLR8 (Homo sapiens, UniProt Q9NR97)", "assayValue": 10.40}
{"molecule": "COCCN1CCC[C@@H](n2c(=O)[nH]c3cc(-c4cc(OC)c5ncnn5c4)c(C(F)(F)F)cc32)C1", "measurementTarget": "human TLR8 (Homo sapiens, UniProt Q9NR97)", "assayValue": 7.64}
{"molecule": "Cc1c(-c2cc3[nH]c(=O)n(C4CCC(N5CC(F)C5)CC4)c3cc2C(C)C)cn2ncnc2c1C (centres unmarked) [Example 280]", "measurementTarget": "human TLR8 (Homo sapiens, UniProt Q9NR97)", "assayValue": 8.56}
{"molecule": "COc1c(C)c(-c2cc3[nH]c(=O)n(C4CCC(N5CC6(COC6)C5)CC4)c3cc2C(C)C)cn2ncnc12 (single isomer, unassigned) [Example 270]", "measurementTarget": "human TLR8 (Homo sapiens, UniProt Q9NR97)", "assayValue": 8.55}
{"molecule": "COc1cc(-c2cc3[nH]c(=O)n([C@H]4CC[C@H](NC5CCN(C(C)C)CC5)CC4)c3cc2C(C)C)cn2ncnc12", "measurementTarget": "human TLR8 (Homo sapiens, UniProt Q9NR97)", "assayValue": 8.38}
{"molecule": "COc1c(C)c(-c2cc3[nH]c(=O)n(C4CCC(N5CCC6(CC5)COC6)CC4)c3cc2C(C)C)cn2ncnc12 (single isomer, unassigned) [Example 268]", "measurementTarget": "human TLR8 (Homo sapiens, UniProt Q9NR97)", "assayValue": 8.97}

P: COCCN1CCC[C@@H](n2c(=O)[nH]c3cc(-c4cc(OC)c5ncnn5c4)c(C(C)C)cc32)C1 (single isomer, unassigned) [Example 225]
Q: Cc1cc2c(cc1-c1cc(C)c3ncnn3c1)[nH]c(=O)n2[C@@H]1CCCN(CC(N)=O)C1
Query block: Lower pIC50: P or Q ? Lab note: record the label of whichever item you select.
Result block: Q

Reference source: patent US12187723B2
